The measured values listed here are drawn from the supplement of paper PMC10065799.

target: EPHB2 (UniProt P29323); assay: phosphorylation enrichment, bacterial display (enrichment ratio); higher = better substrate or ligand; peptides without Tyr show the background;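 note: 11-residue human phosphosite peptides and single-mutation variants displayed on the E. coli surface, counted by deep sequencing, each peptide's frequency after selection divided by its frequency in the unselected input library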;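 note: frequency after pTyr selection over input frequency; kinase dosed for 20-30% of maximal phosphorylation in three min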
Sequence (P29323 whole entry, looked up): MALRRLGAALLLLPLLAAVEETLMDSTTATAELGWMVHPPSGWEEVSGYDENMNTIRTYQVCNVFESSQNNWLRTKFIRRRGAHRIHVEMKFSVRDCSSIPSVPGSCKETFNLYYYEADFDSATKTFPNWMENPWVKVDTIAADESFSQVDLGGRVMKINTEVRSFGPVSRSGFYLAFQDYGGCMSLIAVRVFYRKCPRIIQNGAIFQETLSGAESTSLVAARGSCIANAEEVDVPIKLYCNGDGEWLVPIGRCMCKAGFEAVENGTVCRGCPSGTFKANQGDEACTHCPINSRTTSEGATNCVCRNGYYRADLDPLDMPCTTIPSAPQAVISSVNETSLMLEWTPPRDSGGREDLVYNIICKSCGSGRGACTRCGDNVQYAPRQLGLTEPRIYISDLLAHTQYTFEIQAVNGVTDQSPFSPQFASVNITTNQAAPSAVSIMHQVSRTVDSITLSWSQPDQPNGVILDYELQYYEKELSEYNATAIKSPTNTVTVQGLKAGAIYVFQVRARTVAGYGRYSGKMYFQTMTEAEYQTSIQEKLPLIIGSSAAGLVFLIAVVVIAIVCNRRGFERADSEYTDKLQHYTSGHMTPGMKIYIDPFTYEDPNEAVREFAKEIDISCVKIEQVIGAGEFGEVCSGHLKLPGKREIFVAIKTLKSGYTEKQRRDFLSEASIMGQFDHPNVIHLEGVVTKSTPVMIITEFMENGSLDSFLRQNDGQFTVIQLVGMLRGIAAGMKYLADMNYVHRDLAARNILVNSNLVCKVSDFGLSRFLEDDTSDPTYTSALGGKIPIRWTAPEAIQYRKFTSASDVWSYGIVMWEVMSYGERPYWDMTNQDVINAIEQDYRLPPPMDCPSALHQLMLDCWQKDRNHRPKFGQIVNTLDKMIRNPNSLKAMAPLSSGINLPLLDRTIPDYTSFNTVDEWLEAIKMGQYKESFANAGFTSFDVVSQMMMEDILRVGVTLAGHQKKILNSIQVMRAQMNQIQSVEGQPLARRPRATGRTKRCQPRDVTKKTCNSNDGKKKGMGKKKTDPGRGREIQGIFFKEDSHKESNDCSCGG
Endpoint name: phosphorylation enrichment
Form: value (number only, do not type unit).

Check out these entries, answers already filled in.
SEKISYVFMKR [SSX7_Y48_L43S_YF] | 0.597
EWQQTYTYDSG [JUP_Y20] | 0.585
SVTCTYYPALN [TP53_Y126_S127Y] | 0.617

Would you kindly look at the next entry?
Returns the measured phosphorylation enrichment for the input sequence. Input: DFPGIYSGFDD [POLR1C_Y33_N32I_YF]
0.585

====

biological target: MERTK (UniProt Q12866); test: phosphorylation enrichment, bacterial display (enrichment ratio); higher = better substrate or ligand; peptides without Tyr show the background
Sequence (Q12866 whole entry, looked up): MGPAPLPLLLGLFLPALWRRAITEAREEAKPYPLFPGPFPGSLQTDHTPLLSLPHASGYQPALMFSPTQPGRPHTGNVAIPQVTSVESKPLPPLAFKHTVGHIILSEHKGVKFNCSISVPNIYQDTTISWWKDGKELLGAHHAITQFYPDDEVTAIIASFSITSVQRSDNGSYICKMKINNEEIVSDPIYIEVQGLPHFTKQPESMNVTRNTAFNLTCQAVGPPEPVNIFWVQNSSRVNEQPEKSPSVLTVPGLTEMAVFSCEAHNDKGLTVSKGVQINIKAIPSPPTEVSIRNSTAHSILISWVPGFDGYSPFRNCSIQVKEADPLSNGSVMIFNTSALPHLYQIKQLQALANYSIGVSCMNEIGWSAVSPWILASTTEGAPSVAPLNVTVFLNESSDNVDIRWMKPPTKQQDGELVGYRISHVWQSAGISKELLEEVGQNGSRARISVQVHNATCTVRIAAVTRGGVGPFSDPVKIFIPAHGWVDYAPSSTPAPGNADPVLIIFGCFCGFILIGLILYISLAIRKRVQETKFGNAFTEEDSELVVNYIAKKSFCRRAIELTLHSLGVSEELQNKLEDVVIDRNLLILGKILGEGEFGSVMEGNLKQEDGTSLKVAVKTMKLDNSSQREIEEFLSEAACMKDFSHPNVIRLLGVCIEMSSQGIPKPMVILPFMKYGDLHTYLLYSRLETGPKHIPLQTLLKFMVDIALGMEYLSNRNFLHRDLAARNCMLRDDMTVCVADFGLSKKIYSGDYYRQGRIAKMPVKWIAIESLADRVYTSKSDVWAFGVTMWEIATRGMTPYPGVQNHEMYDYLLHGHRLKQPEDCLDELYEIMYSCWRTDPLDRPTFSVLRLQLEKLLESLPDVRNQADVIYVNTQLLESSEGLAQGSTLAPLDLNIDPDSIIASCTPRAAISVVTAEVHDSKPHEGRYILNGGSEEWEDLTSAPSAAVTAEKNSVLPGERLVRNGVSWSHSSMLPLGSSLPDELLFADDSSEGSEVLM
Listed here are sequences together with their documented phosphorylation enrichment.
Form: value (number only, do not type unit).

Check out these entries, answers already filled in.
VDASYCGGRGV [ANTXR2_Y381_Y381C] | 0.559
MFNPYYGLFEY [NEDD4L_Y680] | 7.1
KELALYDENWF [RPS19_Y48_P47L] | 7.19
LSSVSYVGCSL [ADGRD1_Y571_I569V] | 1.05
RGFRQYAFDGK [HLA-A_Y140_D140Y_YF] | 0.584
CSTIHYNFMCN [TP53_Y234_T230S_YF] | 0.385

Returns the measured phosphorylation enrichment for the input sequence. Input: TLRKTYGEMAD [ALB_Y108_E106K]
0.381
